biological target: recombinant human NF-kappaB-inducing Kinase (NIK/MAP3K14) (Homo sapiens); test: Inhibition of auto-phosphorylation of recombinant human NIK/MAP3K14 activity (AlphaScreen); assay type: biochemical; details: 25 microM ATP, averaged over all measurements on all batches
Sequence (Q99558 whole entry): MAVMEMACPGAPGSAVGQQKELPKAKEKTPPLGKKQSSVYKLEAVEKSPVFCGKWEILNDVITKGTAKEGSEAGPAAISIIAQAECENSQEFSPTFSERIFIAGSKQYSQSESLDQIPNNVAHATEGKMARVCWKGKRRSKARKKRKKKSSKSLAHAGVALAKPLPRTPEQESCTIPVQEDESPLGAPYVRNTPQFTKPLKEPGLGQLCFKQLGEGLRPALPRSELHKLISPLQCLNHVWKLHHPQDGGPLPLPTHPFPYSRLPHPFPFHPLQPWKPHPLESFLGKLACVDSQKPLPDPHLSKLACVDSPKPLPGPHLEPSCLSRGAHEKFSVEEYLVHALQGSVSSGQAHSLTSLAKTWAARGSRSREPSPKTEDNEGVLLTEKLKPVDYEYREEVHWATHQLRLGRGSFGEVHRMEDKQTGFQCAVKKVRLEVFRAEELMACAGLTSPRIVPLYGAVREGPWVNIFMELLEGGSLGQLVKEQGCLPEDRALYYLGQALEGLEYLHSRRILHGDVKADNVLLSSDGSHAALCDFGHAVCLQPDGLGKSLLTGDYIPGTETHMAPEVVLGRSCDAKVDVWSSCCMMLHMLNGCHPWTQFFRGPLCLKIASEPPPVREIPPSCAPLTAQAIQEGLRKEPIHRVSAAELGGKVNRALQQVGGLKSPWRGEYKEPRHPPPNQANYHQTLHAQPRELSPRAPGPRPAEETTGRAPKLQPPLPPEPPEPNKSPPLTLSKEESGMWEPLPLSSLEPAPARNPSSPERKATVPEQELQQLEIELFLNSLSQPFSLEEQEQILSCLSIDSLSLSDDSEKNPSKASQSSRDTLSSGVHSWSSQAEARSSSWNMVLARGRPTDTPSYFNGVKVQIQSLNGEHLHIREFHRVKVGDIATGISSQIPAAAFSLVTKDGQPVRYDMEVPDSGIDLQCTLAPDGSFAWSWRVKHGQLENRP
Checkbox rule: IC50 lower than 5 nM = 1.0; IC50 not lower than 5 nM = 0.0.

Problem: # strict comparison: is reported IC50 < 5 nM? input = Cc1cc(Nc2nccc(-c3cc(C#N)c4c(c3)[C@@](C)(CO)CN4)n2)c(=O)n(CC(C)N2CCOCC2)c1 (single isomer, unassigned) [Compound 22i]
Result: 1.0

Problem: # strict comparison: is reported IC50 < 5 nM? input = COCCNc1nc(OC)c(Nc2nccc(-c3cc(C#N)c4c(c3)[C@@](C)(CO)CN4)n2)cc1Cl [Compound 10]
Result: 0.0

Problem: # strict comparison: is reported IC50 < 5 nM? input = CN(C)CCn1cc(Cl)cc(Nc2nccc(-c3cc(C#N)c4c(c3)[C@@](C)(CO)CN4)n2)c1=O [Compound 12i]
Result: 1.0

Problem: # strict comparison: is reported IC50 < 5 nM? input = Cc1cnc(CO)cc1Nc1nccc(-c2cc(C#N)c3c(c2)[C@@](C)(CO)CN3)n1 [Compound 156]
Result: 1.0

Problem: # strict comparison: is reported IC50 < 5 nM? input = COCCOc1nc(C2CC2)ccc1Nc1nccc(-c2cc(C#N)c3c(c2)[C@@](C)(CO)CN3)n1 [Compound 62]
Result: 0.0

Problem: # strict comparison: is reported IC50 < 5 nM? input = COCCOc1nc(P(C)(C)=O)ncc1Nc1nccc(-c2cc(C#N)c3c(c2)[C@@](C)(CO)CN3)n1 [Compound 139]
Result: 0.0

----------
assay.metric: melting point (°C)
API: value field is a number in °C; no unit string.

Problem: Please report the recorded melting point for Cc1ncc(C2CCN(C)CC2)cc1Nc1nccc(-c2cc(C#N)c3c(c2)[C@@](C)(CO)CN3)n1 [Compound 164] .
Result: 121

Problem: Please report the recorded melting point for COc1nc(CCC(=O)N(C)C)ccc1Nc1nccc(-c2cc(C#N)c3c(c2)[C@@](C)(CO)CN3)n1 [Compound 49] .
Result: 195

Problem: Please report the recorded melting point for Cn1cc(Cl)cc(Nc2nccc(-c3cc(C#N)c4c(c3)C(C)(CO)CN4)n2)c1=O (stereo not drawn) [Compound 15i] .
Result: 295

Problem: Please report the recorded melting point for COc1nc(/C=C/C(=O)N(C)C)ccc1Nc1nccc(-c2cc(C#N)c3c(c2)[C@@](C)(CO)CN3)n1 [Compound 48] .
Result: 192

Problem: Please report the recorded melting point for CNC(=O)c1cnc(C)c(Nc2nccc(-c3cc(C#N)c4c(c3)[C@@](C)(CO)CN4)n2)c1 [Compound 93] .
Result: 165

Problem: Please report the recorded melting point for COc1ncccc1Nc1nccc(-c2cc(C#N)c3c(c2)C(C)(CNC(C)=O)CN3)n1 (stereo not drawn) [Compound 115] .
Result: 203

Problem: Please report the recorded melting point for CC(C)(O)COc1ncc(C#N)cc1Nc1nccc(-c2cc(C#N)c3c(c2)[C@@](C)(CO)CN3)n1 [Compound 77] .
Result: 162

Problem: Please report the recorded melting point for COc1ncccc1Nc1nccc(-c2cc(C#N)c3c(c2)C(C)(CN2CCNCC2)CN3)n1 (stereo not drawn) [Compound 111] .
Result: 220

Problem: Please report the recorded melting point for Cc1cc(Nc2nccc(-c3cc(C#N)c4c(c3)[C@@](C)(CO)CN4)n2)c(=O)n(CCN2CC(C)OC(C)C2)c1 (stereo partly drawn) [Compound 2i] .
Result: 135

Problem: Please report the recorded melting point for Cc1cc(Nc2nccc(-c3cc(C#N)c4c(c3)[C@@](C)(COC(=O)C(C)C)CN4)n2)c(=O)n(CCN2CC(C)OC(C)C2)c1 (stereo partly drawn) [Compound 24i] .
Result: 120

Problem: Please report the recorded melting point for Cc1cc(Nc2nccc(-c3cc(C#N)c4c(c3)[C@@](C)(CO)CN4)n2)c(=O)n(CCN2CC(C)NC(C)C2)c1 (stereo partly drawn) [Compound 16i] .
Result: 232

Problem: Please report the recorded melting point for COc1ncc(Cl)cc1Nc1nccc(-c2cc(C#N)c3c(c2)C(C)(COCCNC2CC2)CN3)n1 (stereo not drawn) [Compound 119] .
Result: 106

Problem: Please report the recorded melting point for Cc1ncc(Nc2nccc(-c3cc(C#N)c4c(c3)[C@@](C)(CO)CN4)n2)c(OCC2CCCO2)n1 (single isomer, unassigned) [Compound 137] .
Result: 200

Problem: Please report the recorded melting point for COCCCn1cccc(Nc2nccc(-c3cc(C#N)c4c(c3)[C@@](C)(CO)CN4)n2)c1=O [Compound 10i] .
Result: 192

Problem: Please report the recorded melting point for COCCNc1nc(OC)c(Nc2nccc(-c3cc(C#N)c4c(c3)C(C)(CO)CN4)n2)cc1Cl (stereo not drawn) [Compound 2] .
Result: 230

Problem: Please report the recorded melting point for C[C@]1(CO)CNc2c(C#N)cc(-c3ccnc(Nc4cccnc4OCC4CC4)n3)cc21 [Compound 45] .
Result: 138

Problem: Please report the recorded melting point for COCCCc1ncc(C)cc1Nc1nccc(-c2cc(C#N)c3c(c2)[C@@](C)(CO)CN3)n1 [Compound 177] .
Result: 115

Problem: Please report the recorded melting point for COCCOc1ncc(Cl)cc1Nc1nccc(-c2cc(C#N)c3c(c2)[C@@](C)(CO)CN3)n1 [Compound 39] .
Result: 204

Problem: Please report the recorded melting point for Cc1cc(Nc2nccc(-c3cc(C#N)c4c(c3)[C@@](C)(CO)CN4)n2)c(=O)n(CCN2CC(F)C2)c1 [Compound 1i] .
Result: 149

Problem: Please report the recorded melting point for COCCOc1ncc(C)cc1Nc1nccc(-c2cc(C#N)c3c(c2)[C@@](C)(CO)CN3)n1 [Compound 69] .
Result: 186

Problem: Please report the recorded melting point for CC(C)(O)c1ccc(Nc2nccc(-c3cc(C#N)c4c(c3)[C@@](C)(CO)CN4)n2)c(CCC2CC2)n1 [Compound 81] .
Result: 318

Problem: Please report the recorded melting point for Cc1cc(Nc2nccc(-c3cc(C#N)c4c(c3)[C@@](C)(CO)CN4)n2)c(=O)n(C)c1 [Compound 9i] .
Result: 313

Problem: Please report the recorded melting point for COc1cccnc1Nc1nccc(-c2cc(C#N)c3c(c2)[C@@](C)(CO)CN3)n1 [Compound 24] .
Result: 145

Problem: Please report the recorded melting point for C[C@]1(CO)CNc2c(C#N)cc(-c3ccnc(Nc4cccnc4OC[C@@H]4CCCO4)n3)cc21 [Compound 42] .
Result: 154
